Assay: Confirmation screen for delayed death inhibitors of the malarial parasite plastid, 96 hour incubation; note: nearly all actives have a fitted effect of over 60% in size
Conditions: P. falciparum luciferase growth in erythrocytes; series mostly up to 28.7 µM
Screen size: about 2,300 compounds; about 1,400 (61%) were called active. Not shown: some 29% with an inconclusive outcome. Calls come from the whole dose curve; as a rule, active = well fitted inhibition curve with a large enough effect; inconclusive = small, poorly fitted or top-dose-only effect, or effect the other way; inactive = no such curve, though single readings can be large or run the other way. The set was probably picked from earlier hits. The list shows a part of the results.
Possible outcomes: active, inactive

| COMPOUND | ANSWER_LABEL |
| --- | --- |
| CCCNS(=O)(=O)c1ccc(OCC(=O)N2CCN(Cc3ccc4c(c3)OCO4)CC2)c(C)c1 | active |
| C[C@H]1C[C@@H](C)C(=O)[C@@H]([C@H](O)CC2CC(=O)NC(=O)C2)C1 | active |
| C=C1C(=O)O[C@@H]2C[C@@H](C)[C@@H]3C=CC(=O)[C@@]3(C)[C@@H](O)[C@H]12 | active |
| O=C1NC(=O)N(c2ccccc2)C(=O)/C1=C/C=C/c1ccco1 | inactive |
| CC(C)c1ccc(N2C(=O)NC(=O)/C(=C\C=C\c3ccco3)C2=O)cc1 | inactive |
| C=C1C(=O)O[C@@H]2C[C@@H](C)[C@@H]3C=CC(=O)[C@@]3(C)[C@@H](OC(=O)CC(=O)O[C@H]3[C@@H]4C(=C)C(=O)O[C@@H]4C[C@@H](C)[C@@H]4C=CC(=O)[C@]43C)[C@H]12 | active |
| O=C(CCl)Nc1nccs1 | active |
| O=C(NC1CC2CCCC(C1)N2)c1ccccc1 (centres undefined) | active |
| C[C@@H]1C[C@@H]([C@H](O)CC2CC(=O)NC(=O)C2)C(=O)[C@@H](C)C1 | active |
